- System: recombinant SmCB1
- Experimental details: Kinetic inhibition assay with recombinant SmCB1 (k2nd)
- Assay type: biochemical, S. mansoni
- Applied conditions: second-order rate constant (kinact/Ki); substrate Cbz–Phe–Arg–AMC; pH 5.5, 37 °C; mean ± SE
Binary classification by SmCB1 inhibition k2nd, with 800 M^–1·s^–1 as an inclusive lower bound for 1; all other cases are -1.

Compound	Class label
CCC(C)C(C(=O)OC(CC(C)C)C(=O)NC(CC(C)C)C(=O)NC(C=CC(=O)N1C(=O)C=C(OC)C1CC(C)C)Cc1ccccc1)N(C)C (stereo not drawn) [compound 10]	-1
CCC(C)C(C(=O)NC(CC(C)C)C(=O)NC(CC(C)C)C(=O)NC(C)C=CC(=O)N1C(=O)C=C(OC)C1C)N(C)C (stereo not drawn) [compound 4]	1
CCC(C)C(C(=O)OC(CC(C)C)C(=O)NC(CC(C)C)C(=O)NC(C=CC(=O)N1C(=O)C=C(OC)C1C)Cc1ccccc1)N(C)C (stereo not drawn) [compound 8]	1
CCC(C)C(C(=O)OC(CC(C)C)C(=O)NC(CC(C)C)C(=O)NC(C=CC(=O)N1C(=O)C=C(OC)C1Cc1ccccc1)Cc1ccccc1)N(C)C (stereo not drawn) [compound 14]	-1
C#CCCCCOC1=CC(=O)N(C(=O)C=CC(C)NC(=O)C(CC(C)C)NC(=O)C(CC(C)C)OC(=O)C(C(C)CC)N(C)C)C1C (stereo not drawn) [compound 5]	1
